Each recorded value in this set is attributed to PubChem BioAssay (NCI).

Tested on: OVCAR-5 ovarian
Assay: NCI tumour cell line growth inhibition, 48 h
Value Type: TGI

CC(Cc1ccc(O)cn1)(NC(=O)c1ccccc1)C(=O)O (stereo unspecified) :: > 100 µM

Next molecule, please.
Memo: CC[n+]1c(/C=C/c2ccc(N3CCCC3)cc2)cccc1/C=C/c1ccc(N2CCCC2)cc1 , reported TGI: 1.48 µM

* * *

# key: entry, value: TGI
Test system: RXF 393 renal
Assay: NCI tumour cell line growth inhibition, 48 h

Cc1nn(C(=O)c2ccc(Cl)cc2)c2c1C(c1ccccc1)SC(N)=N2 (stereo unspecified) :: > 10 µM
CCOC(=O)c1sc2c(c1OC(=O)c1ccc(Cl)cc1Cl)c(=O)n(-c1ccccc1)c(=S)n2-c1ccccc1 :: > 100 µM
Cc1ccc(C)c(N2C(=O)C(=O)C(c3nc4ccccc4s3)C(=O)C2=O)c1 :: > 100 µM
CN(NC(=O)c1ccc(Cl)cc1)C1=NCCCCN1 :: > 100 µM
CC1OC(n2ccc3ccc([N+](=O)[O-])cc32)C(O)C(O)C1O (stereo unspecified) :: > 100 µM

// sample CCN1C2=C(SC(=S)C1=C1SC(C(=O)c3ccccc3)=C(C(=O)c3ccccc3)S1)SC(=Nc1ccccc1)C2=O , its TGI was > 45.3 µM

The compound O=C(O)CSc1nc2ccccc2[nH]1 showed TGI equal to > 100 µM

// TGI value for CN1C(=O)CNS1(=O)=O : > 100 µM

Recorded result, CC(Cc1ccc(O)cn1)(NC(=O)c1ccccc1)C(=O)O (stereo unspecified) , TGI: > 100 µM

Just so you know, measured TGI for Cn1c(=O)oc2cc(C(=O)CN3CCN(Cc4ccc5c(c4)OCO5)CC3)c(Cl)cc21 came out at > 100 µM

Record Cc1ccc([I+]c2ccc(C)cc2)cc1 , field TGI: > 100 µM

* * *

Test system: SF-268 CNS
Test: NCI tumour cell line growth inhibition, 48 h
Value Type: TGI (µM)
Number in µM, nothing else.

OC1CCC(COC(c2ccccc2)(c2ccccc2)c2ccccc2)O1 (stereo not given) :: 33.6

Turning now to a further molecule:
// TGI value for CC1(C)CCCCC1/C=C/C(CC(O)(C(F)(F)F)C(F)(F)F)=N\Nc1ccc([N+](=O)[O-])cc1[N+](=O)[O-] (stereo not given) : 3

* * *

Tested on: CAKI-1 renal
Assay: NCI tumour cell line growth inhibition, 48 h
Where a SMILES comes first, the peptide text is derived from it. The star is where a group is joined. Boc = CC(C)(C)OC(=O)*
Value Type: TGI

Example entries begin here.
S=C1NC(c2ccccc2)=NC(Cc2ccccc2)(c2ccccc2)N1c1ccccc1 (stereo not drawn) :: > 100 µM
O=c1[nH]ncc2[nH]c(-c3ccccc3)cc12 :: > 100 µM
NC(=S)Nc1c(S(N)(=O)=O)cc(S(N)(=O)=O)c(Cl)c1Cl :: > 100 µM
OCC(O)COc1ccc(F)cc1 (stereo not drawn) :: > 100 µM
O=C1C2=C(c3ccccc31)C(c1ccccc1Cl)NC(=S)N2 (stereo not drawn) :: > 100 µM

Please fill in: TGI reported for O=C(c1ccccc1)c1ccc(N2C(=O)/C(=C/c3cccc([N+](=O)[O-])c3)N=C2c2ccccc2)c(N2C(=O)/C(=C/c3cccc([N+](=O)[O-])c3)N=C2c2ccccc2)c1 = > 100 µM

TGI reading for N#CCC(=O)N/N=C(/C(=O)Nc1ccccc1)C1C(=O)N(c2ccccc2)N=C1N (stereo not drawn) : > 100 µM

Form field TGI, entry CCOC(=O)Nc1ccc2c3c(cccc13)-c1ccccc1-2 : > 100 µM

Reported TGI for CC(=O)N[C@@H](Cc1ccc(OP(=O)(O)O)cc1)C(=O)N[C@H]1CCC(=O)N2CCC[C@@H](C(=O)NCc3cccc4ccccc34)N2C1=O was > 25 µM

Briefly, TGI measured for N=C(N)SCCSC(=N)N : > 100 µM

# compound CNC(=O)CNC(=O)C(NC(=O)CNC(=O)C1CCCN1C(=O)C(C)NC(=O)C(NC(=O)OC(C)(C)C)C(C)C)C(C)C (stereo not drawn) (Boc-VAPGVG-NHMe; configuration not given here) ; its TGI = > 100 µM

TGI for Nc1cc2c(c3ccccc13)C(CCl)CN2C(=O)c1cc2cc(NC(=O)c3cc4ccccc4o3)ccc2[nH]1 (stereo not drawn) is < 0.11 µM

For record CNC(=O)Nn1c(SC)nc2ccccc21 the listed TGI is > 100 µM

* * *

System: OVCAR-5 ovarian
Experiment: NCI tumour cell line growth inhibition, 48 h
Reported TGI values follow for various molecules

Answered cases to consult:
Clc1ccc(-c2cn3c(nc4ccccc43)c(/C=C/c3cccs3)n2)cc1 :: > 100 µM
O=c1cc(CN2CCCCC2)[nH]c2c1ccc1nc(CN3CCCCC3)cc(=O)n12 :: > 100 µM
O=C(O)[C@@]1(Cc2ccc(O)cc2)C[C@@H]2Cc3ccccc3N2N1 :: > 100 µM

The value of TGI recorded for CO[C@@H]1C[C@H]2[C@@H]3CC[C@H]([C@@H](C)COC(C)=O)[C@@]3(C)CC[C@@H]2[C@@]2(C)CC[C@H]3C[C@]312 when tested on OVCAR-5 ovarian reads 23.6 µM

* * *

Below, each of the compounds is paired with its reported TGI value.
Test system: SF-268 CNS
Experiment: NCI tumour cell line growth inhibition, 48 h

Please review the entries below; each comes with its answer.
O=C(O)COc1ccc2c3c1C(=O)CCC3CO2 (stereo not drawn) :: > 100 µM
Cn1c(=O)oc2cc(C(=O)CN3CCN(Cc4ccc5c(c4)OCO5)CC3)c(Cl)cc21 :: > 100 µM

Now examine the next entry.
The compound CCN1C2=C(SC(=S)C1=C1SC(C(=O)c3ccccc3)=C(C(=O)c3ccccc3)S1)SC(=Nc1ccccc1)C2=O showed TGI equal to > 100 µM
